Test system: rabbit skeletal myofibrils (approximately 90% fast fibers)
Experiment: Activation of fast skeletal myofibrils (PUMA coupled-enzyme ATPase assay at pCa25)
Type: biochemical
Settings: concentration at which the compound increased the enzymatic activity by 40%; calcium at pCa25; PM12 buffer pH 6.8
measure: Mean AC1.4

> print(dat)
                                 cpd.smiles     measure  value.observed
1  N#Cc1cnc(-c2cnc(NCC3(c4ccccn4)CCC3)nc2)s1  Mean AC1.4    D (D=>20 uM)
2     CN1CCc2nc(NCC(C)(C)c3ccc(F)cc3)ncc2C1  Mean AC1.4    D (D=>20 uM)
3  CC(C)(Nc1ncc(-c2cc(C#N)ccc2F)cn1)c1ncccc1C(F)F  Mean AC1.4   B (B=1-10 uM)
4  CC(C)(Nc1ncc(-c2cc(C(N)=O)ccc2F)cn1)c1ncccc1C(F)F  Mean AC1.4   B (B=1-10 uM)
5  O=C(O)c1csc(-c2cnc(NCC3(c4ncccc4F)CCC3)nc2)n1  Mean AC1.4  C (C=10-20 uM)
6  O=C(O)c1ccn(-c2cnc(NC[C@]3(c4ncccc4F)C[C@H](F)C3)nc2)c1  Mean AC1.4    D (D=>20 uM)
7  COc1cccnc1C(C)(C)Nc1ncc(-c2cc(C(N)=O)ccc2F)cn1  Mean AC1.4  C (C=10-20 uM)

Cited source for all entries: patent US11369565B2
